# Assay procedure: LD50 estimate after a single intraperitoneal dose (Example 8)
# Assay type: in vivo
# Measurement context: male, Swiss-Webster, mouse, in vivo, ip; mice; single intraperitoneal dose; sigmoidal curve fit, R^2=0.949
# Experimental: Male Swiss-Webster mice were obtained from standard commercial sources at 7 weeks of age, housed in the laboratory for at least 1 week prior to use and were provided standard mouse chow and water ad libitum. Animals were subjected to a 12 hour/12 hour light-dark cycle. Six groups of mice were injected via the intraperitoneal route with 5-EPP (250-500 mg/kg) dissolved in sterile isotonic saline, immediately replaced in their cages and then observed carefully for the next 6-8 hours. […]
Value kind: LD50 (mg/kg)
Give bare numbers, in mg/kg.

### Prompt Looking for the measured LD50 of CCc1ccc(=O)n(-c2ccccc2)c1 [5-EPP, 5-ethyl-1-phenyl-2-(1H)-pyridone] , can you help?
### Response 380

---

# Assay procedure: Solubility in water and isotonic saline (Example 9)
# Type: physicochemical
# Measurement context: thermodynamic from solid; water; room temperature; colorless, clear solution; read-out: solubility (soluble at)
Value kind: solubility (mg/mL)
Numbers only, in mg/mL.

### Prompt For CCc1ccc(=O)n(-c2ccccc2)c1 , what is its reported solubility?
### Response 20

// data source = patent US8093210B2
